Source of measurements: PubChem BioAssay (NCI)

Please go through the items and note down their growth.
test system: SW-620 colon; assay: NCI-60 one-dose screen, 48 h (100 = growth as untreated, 0 = no growth, -100 = all killed); details: 10 µM unless noted
This is part of a sample that, as a whole, favours compounds with a hit. Of some 83,000 tested, about 20% had one in any assay.
Numbers only, in %.

Observe how each entry below is paired with its result.
CN1CCN(Cc2ccc(NC(=O)c3cncc(C#Cc4cnc5ccc(O[C@H]6CCOC6)nn45)c3)cc2C(F)(F)F)CC1 ... -32.4
CC(C)=CCc1c2c(c(O)c3c1O[C@]14C(=C[C@@H]5C[C@H]1C(C)(C)O[C@@]4(C/C=C(/C)C(=O)O)C5=O)C3=O)CC(O)C(C)(C)O2 (some centres undefined) ... -44.8
COc1cc(/C=C/C(=O)c2ccc(N3CCN(C)CC3)cc2)ccc1F ... 33
O=C1c2c(c3c4cc(Br)ccc4[nH]c3c3ccc4ccccc4c23)C(=O)N1CCN1CCCCC1 ... 10.5
O=C(CSc1nnc(-c2cccs2)n1-c1ccccc1)Nc1ccc(F)cc1 ... 97.2

# batch: return growth for each of the 2 compounds below
1. COc1ccc(-c2oc3cc(O)cc(O)c3c(=O)c2OC)cc1O
2. O=C1Nc2cc(OC(F)(F)F)ccc2Oc2ccc(-c3ccnc(N4CC[C@H](O)C4)c3)cc21

1: 29.6; 2: -19.3

# batch: return growth for each of the 2 compounds below
1. COc1ccc(-c2no[n+]([O-])c2Nc2ccccc2Br)cc1
2. C=CCn1c(SCC(=O)Nc2cccc(C(=O)/C=C/c3ccccc3)c2)nc2ccccc2c1=O

[101, 12.2]

----------
tested on: OVCAR-5 ovarian; test: NCI-60 one-dose screen, 48 h; settings: 10 µM unless noted
Compounds without any hit were thinned out: in the full panel of roughly 83,000, 20% have a hit. Active and inactive are the calls of the source. Rule for the calls: active = growth percent below 10; inactive = the rest.
Pick from active, inactive when you respond.

The examples below pair each entry with its known result.
COc1ccc(-c2nc(SCC(C)C)nc(N/N=C\c3cccc([N+](=O)[O-])c3)c2C#N)cc1 ... inactive
COc1ccc2c(C3=C(c4c[nH]c5ccccc45)C(=O)N(O)C3=O)coc2c1 ... inactive
Cn1ccnc1C(=O)/C=C/c1ccc(C(=O)Nc2ccc(NC(=O)CCNC(=O)c3csc(Br)n3)cc2)cc1 ... inactive
CN1CCN(c2ccc3c(C(N)=O)c(NC(=O)c4ccc(C(C)(C)C)cc4)sc3c2)CC1 ... inactive
CCOC(=O)c1c(NCC(=O)Nc2cccc(Cl)c2)sc2c1CCCC2 ... inactive

I would be grateful if you could indicate the recorded call for `C=C(C)[C@@H]1CC[C@]2(C(=O)ON)CC[C@]3(C)[C@H](CC[C@@H]4[C@@]5(C)C/C(=C/c6ccc(Br)cc6)C(=O)C(C)(C)[C@@H]5CC[C@]43C)[C@@H]12` .
inactive

I would be grateful if you could indicate the recorded call for `O=C1[C@@H]2Cc3c([nH]c4ccccc34)[C@H](c3c(Cl)cccc3Cl)N2C(=O)CN1C1CCN(Cc2c(F)cccc2F)CC1` .
inactive

I would be grateful if you could indicate the recorded call for `NC(=O)c1c(NC(=O)c2cccc(C(F)(F)F)c2F)sc2c1CCC(=O)C2` .
inactive

I would be grateful if you could indicate the recorded call for `N#Cc1c(NC(=O)c2ccccc2C(F)(F)F)sc2c1CCC(=O)C2` .
active

I would be grateful if you could indicate the recorded call for `COc1cc(C(=O)c2cc(C(C)=O)c3c4ccccc4ccn23)cc(OC)c1OC` .
inactive

I would be grateful if you could indicate the recorded call for `COc1ccc(-c2ccnc3c(C#N)c(Nc4ccccc4)nn23)cc1OC` .
inactive

I would be grateful if you could indicate the recorded call for COc1cc(C2CC(c3ccc(Nc4nc(NCCO)nc(Nc5ccc(Cl)cc5)n4)cc3)=Nc3c(N)nc(N)nc3N2)cc(OC)c1OC (stereo unspecified) .
inactive

I would be grateful if you could indicate the recorded call for `COc1ccc(S(=O)(=O)n2cc(C=O)c3ccccc32)c(OC)c1` .
inactive

I would be grateful if you could indicate the recorded call for `CCCCCCCCNC(=O)c1ccc(Cn2c(CCCC)nc3c(N)nc4ccccc4c32)cc1` .
inactive

I would be grateful if you could indicate the recorded call for `CCOC(=O)Nc1ccc(-c2nc(-c3cccc(O)c3)c(-c3ccnc(Br)c3)[nH]2)cc1` .
inactive

I would be grateful if you could indicate the recorded call for `O=C(NNc1nc2cc(F)c(F)cc2n2cccc12)c1cccnn1` .
inactive

----------
Please go through the items and note down their growth.
system: DU-145 prostate; test: NCI-60 one-dose screen, 48 h (100 = growth as untreated, 0 = no growth, -100 = all killed); details: 10 µM unless noted
About 83,000 compounds went through this panel and 20% of them were active in at least one assay; those are over-represented in the sample as a whole. Calls of active or inactive are those of the source. How the source made its calls: active means growth percent below 10; inactive means the rest.

O=C(/C=C1\C=CN(CCCCF)c2ccccc21)n1ccc2ccccc21 ... 127% (inactive)
CN1CCN(c2ccc(C(=O)Nc3cccc(-c4cn(-c5ccc(S(N)(=O)=O)cc5)nn4)c3)cc2C(F)(F)F)CC1 ... 92.5% (inactive)
C(=C(\C1=NCCN1)n1cnc2ccccc21)/c1cccc2ccccc12 ... 98.1% (inactive)

# batch: return growth for each of the 6 compounds below
1. O=C(NNc1nc2cc(F)cc(F)c2n2cccc12)c1ncccn1
2. C=CCn1c(SCC(=O)Nc2cccc(C(=O)/C=C/c3ccc(OC)c(OC)c3)c2)nc2ccccc2c1=O
3. COC(=O)Nc1ccc(-c2nc(-c3cccc(O)c3)c(-c3ccnc(Br)c3)[nH]2)cc1
4. COc1cc2cc(Oc3ccc(NC(=O)Nc4cccc(C(F)(F)F)c4)cc3)c(C)nc2cc1OCCN(C)C
5. O=C(Nc1cc(Cl)cc(Cl)c1)Nc1ccc2oc(=O)ccc2c1
6. O=C(COc1ccc(C2SCC(=O)N2c2ccc(F)cc2)cc1)c1ccccc1 (centres undefined)

1. 20.6% (inactive)
2. 95.2% (inactive)
3. 62.1% (inactive)
4. 92.5% (inactive)
5. 17% (inactive)
6. 104% (inactive)

----------
test system: NCI-H322M lung; assay: NCI-60 one-dose screen, 48 h (100 = growth as untreated, 0 = no growth, -100 = all killed); conditions: 10 µM unless noted
The panel holds about 83,000 compounds, 20% with a hit somewhere; the sample as a whole holds those more often. Calls of active or inactive are those of the source. How the source made its calls: active means growth percent below 10; inactive means the rest.
Please go through the items and note down their growth.

Observe how each entry below is paired with its result.
CCOC(=O)c1nn(-c2ccccc2)c(=O)c2c(N)c(C#N)c(-c3cccs3)cc12 ... 91.4% (inactive)
C/C(=N\NC(=O)CSc1nc2sc3c(c2c(=O)n1-c1ccccc1)CCC(C)C3)c1ccc(Cl)cc1 (stereo not drawn) ... 51.3% (inactive)
COc1cc2oc(-c3cccc(NC(=O)c4cc(NC(=O)[C@H](C)N)ccc4Cl)c3)cc(=O)c2c(OC)c1OC ... 104% (inactive)

# batch: return growth for each of the 2 molecules below
1. CCN(CC)CCCC(C)NCC(=O)NC(c1ccc2c(c1)OCO2)c1cc(Cl)c2cccnc2c1O (stereo not drawn)
2. CCN1C/C(=N\S(=O)(=O)c2ccccc2)N(CC)C1=S

1. 35.2% (inactive)
2. 101% (inactive)

----------
system: DU-145 prostate; assay: NCI-60 one-dose screen, 48 h (100 = growth as untreated, 0 = no growth, -100 = all killed); details: 10 µM unless noted
This is part of a sample that, as a whole, favours compounds with a hit. Of some 83,000 tested, about 20% had one in any assay. The source made the active and inactive calls. Rule for the calls: active = growth percent below 10; inactive = the rest.
observed_property: growth

Observe how each entry below is paired with its result.
O=C(c1cccc(F)c1)n1ccc2cc(NC(=S)Nc3cccnc3)ccc21 ... 102% (inactive)
CC1OC(O[C@@H]2[C@H](O)C(CO)OC(O[C@H]3COC(O[C@H]4CC[C@]5(C)[C@H]6CC[C@]78OC[C@@]9(CC[C@](C)(C=O)C[C@H]97)C(=O)C[C@@]8(C)[C@]6(C)CC[C@H]5C4(C)C)[C@@H](O)[C@@H]3O)[C@H]2OC2OC[C@@H](O)[C@@H](O)[C@@H]2O)[C@@H](O)[C@@H](O)[C@H]1O (stereo partly drawn) ... 108% (inactive)

Kindly consider the entry below.
Give the reported value of growth for this record: `C/C=C/C=C1\C[C@H]2CO[C@H](O2)C1=O`
106% (inactive)

----------
test system: MDA-MB-435 melanoma; assay: NCI-60 one-dose screen, 48 h (100 = growth as untreated, 0 = no growth, -100 = all killed); conditions: 10 µM unless noted
About 83,000 compounds went through this panel and 20% of them were active in at least one assay; those are over-represented in the sample as a whole.
observed_property: growth (%)
Give bare numbers, in %.

Observe how each entry below is paired with its result.
CC1OC(O[C@@H]2[C@H](O)C(CO)OC(O[C@H]3COC(O[C@H]4CC[C@]5(C)[C@H]6CC[C@]78OC[C@@]9(CC[C@](C)(C=O)C[C@H]97)C(=O)C[C@@]8(C)[C@]6(C)CC[C@H]5C4(C)C)[C@@H](O)[C@@H]3O)[C@H]2OC2OC[C@@H](O)[C@@H](O)[C@@H]2O)[C@@H](O)[C@@H](O)[C@H]1O (stereo partly specified) ... 105
COc1ccc(-c2oc3cc(O)cc(O)c3c(=O)c2OC)cc1O ... -34.3

# batch: return growth for each of the 8 molecules below
1. NCCN1CCN(c2nc(-c3ccccc3)nc3nc(-c4ccccc4)oc23)CC1
2. O=C1Nc2cc(OC(F)(F)F)ccc2Oc2ccc(-c3ccnc(N4CCNCC4)c3)cc21
3. COc1cc2cc(Oc3ccc(NC(=O)Nc4cccc(C(F)(F)F)c4)cc3)c(C)nc2cc1OCCN(C)C
4. O=C(NCCCNc1cc(-c2cn(-c3ccccc3)nc2-c2cccc(O)c2)ccn1)Nc1cccc(C(F)(F)F)c1
5. CCOC(=O)C1=C(C)Nc2nc3ccccc3n2C1c1ccccc1 (stereo unspecified)
6. COc1ccccc1N1CCN(C2=NN=C(c3cccc(Cl)c3)c3ccccc3C2)CC1
7. NC(N)=NS(=O)(=O)c1ccc(N=NC2C(=O)NN(c3ccccc3)C2=O)cc1 (stereo unspecified)
8. COc1ccc(Cn2cc3c(c2-c2cc(OC)c(OC)c(OC)c2)CCCc2cnoc2-3)cc1

1: -77.6; 2: -95.7; 3: 96.6; 4: 31.7; 5: 96.6; 6: -3.46; 7: 101; 8: -48.2

# batch: return growth for each of the 3 molecules below
1. Cc1ccc(Cc2cnc(NC(=O)/C(C#N)=C/c3ccc(-c4ccc(Cl)cc4)o3)s2)cc1
2. O=C1c2c(c3c4cc(Br)ccc4[nH]c3c3ccc4ccccc4c23)C(=O)N1CCN1CCCCC1
3. O=C(COc1ccc(/C=C2\SC(=O)NC2=O)cc1)Nc1ccc(C(=O)/C=C/c2cc3ccccc3nc2Cl)cc1

94.4
-41.8
13.6

# batch: return growth for each of the 8 molecules below
1. Oc1ccc(CSc2nnc(-c3ccccc3)n2-c2ccccc2)c2cccnc12
2. NC(=O)C(=Cc1ccc(Cl)cc1)C(N)=O
3. CNC(=O)c1cc(Oc2ccc3nc(NC(=O)c4cc(C)cc(C)c4)sc3c2)ccn1
4. CN1C(=O)N(C)C2C1NN=c1s/c(=C\c3ccccn3)c(=O)n12 (stereo unspecified)
5. O=C1Nc2cc(OC(F)(F)F)ccc2Oc2ccc(-c3ccnc(N4CC[C@H](O)C4)c3)cc21
6. COc1cc(/C=C/C(=O)c2ccc(NC(=O)COc3cccc4cccnc34)cc2)cc(OC)c1OC
7. C/C(=C(/c1ccc(O)cc1)c1ccc(OCCN2CCCC2)cc1)c1ccc(Cl)cc1
8. CC(C)c1nn(-c2ccccc2)c(N2CCCCC2)c1/C=N/NC(N)=S

1. 13.9
2. 69.6
3. 40.6
4. 88.5
5. -57.3
6. 88.3
7. 20
8. 97.5
